These data points were gathered from patent US20170190671A1.

# pest or weed control at 62 g/ha annotations
Test system: johnsongrass (Sorghum halepense)
Assay: Test C postemergence
Assay type: in vivo
Settings: Sorghum halepense, post-emergence, 336 h; Postemergence, 62 g ai/ha, scale 0 to 100; read-out: Plant response rating, Johnsongrass

{"chemSmiles": "Fc1cccc(Oc2ncc(Cl)cn2)c1Oc1ccc(Cl)nc1", "pest or weed control at 62 g/ha": "5%"}
{"chemSmiles": "Fc1cccc(Oc2ncc(C(F)(F)F)cn2)c1Oc1ncc(Cl)cn1", "pest or weed control at 62 g/ha": "10%"}
{"chemSmiles": "Fc1cnc(Oc2c(Br)cccc2Oc2ncc(Cl)cn2)nc1", "pest or weed control at 62 g/ha": "0%"}
{"chemSmiles": "Fc1ccc(F)c(Oc2ncc(Cl)cn2)c1Oc1ncc(Cl)cn1", "pest or weed control at 62 g/ha": "10%"}
{"chemSmiles": "FC(F)c1cccc(Oc2ncc(Cl)cn2)c1Oc1ncc(Cl)cn1", "pest or weed control at 62 g/ha": "5%"}
{"chemSmiles": "Clc1cnc(Oc2cccc(Cl)c2Oc2ncc(Br)cn2)nc1", "pest or weed control at 62 g/ha": "5%"}
{"chemSmiles": "N#Cc1cccc(Oc2ncc(Cl)cn2)c1Oc1cnc(Cl)cn1", "pest or weed control at 62 g/ha": "10%"}
